# Test system: C2C12 WNT3A-conditioned, nuclear beta-catenin
# assaySummary: activation of intranuclear CTNNB1 in the C2C12 line, dose-response, cell-based, Wnt-3a conditioned medium, half-maximal inhibitory concentration (AID 1117325)
Active and inactive are the calls of the source. No rule for the calls is given here.
# valid calls are active, inactive; nothing else

INSERT INTO results (molecule, assignedlabel) VALUES
  ('CC(C)(C)C(=O)OCOP(=O)(COCCn1cnc2c(N)ncnc21)OCOC(=O)C(C)(C)C', 'active'),
  ('CCCCCCCCCCCCCC[N+](C)(C)C', 'inactive'),
  ('O=c1c(-c2ccccc2)c1-c1ccccc1', 'inactive'),
  ('CN1CC[C@H](c2c(O)cc(O)c3c(=O)cc(-c4ccccc4Cl)oc23)[C@H](O)C1', 'active'),
  ('COC(=O)Nc1nc2ccc(C(=O)c3ccccc3)cc2[nH]1', 'active');

Qu. Dear all, I need the recorded test outcome for COc1cccc2c1C(=O)c1c(O)c3c(c(O)c1C2=O)C[C@@](O)(C(=O)CO)CC3OC1CC(N2CCOC(OC)C2)C(O)C(C)O1 (stereo partly drawn) , thank you.
Ans. active

Qu. Now the molecule `Cc1ccc([N+](=O)[O-])[c]2c1[O][Hg]2`
Ans. active

Qu. How about this molecule: `COc1cccc2c1C(=O)c1c(O)c3c(c(O)c1C2=O)C[C@@](O)(C(C)=O)C[C@@H]3O[C@H]1C[C@H](N)[C@H](O)[C@H](C)O1`
Ans. active

Qu. Next molecule: `CN(C)C(=S)SSC(=S)N(C)C`
Ans. inactive

Qu. Input `CCCCc1ccc2nc(NC(=O)OC)[nH]c2c1`
Ans. active

---

# System: C2C12 WNT3A-conditioned, nuclear beta-catenin
# assaySummary: activation of intranuclear CTNNB1 in the C2C12 line, dose-response, cell-based, Wnt-3a conditioned medium, half-maximal inhibitory concentration (AID 1117325)
Calls of active or inactive are those of the source. The rule behind the calls is not given here.
reportedMetric: IC50

Example results:
INSERT INTO measurements (molecule, testsystem, recordedresult) VALUES
  ('CC(=O)O[C@@]12CO[C@@H]1C[C@H](O)[C@@]1(C)C(=O)[C@H](O)C3=C(C)[C@@H](OC(=O)[C@H](O)[C@@H](NC(=O)OC(C)(C)C)c4ccccc4)C[C@@](O)([C@@H](OC(=O)c4ccccc4)[C@H]21)C3(C)C', 'C2C12 WNT3A-conditioned, nuclear beta-catenin', '65.2 nM'),
  ('Cc1nc(N)nc(N)c1-c1ccc(Cl)c(Cl)c1', 'C2C12 WNT3A-conditioned, nuclear beta-catenin', '50.4 nM'),
  ('CCCCCCCCCCCCCC[N+](C)(C)Cc1ccccc1', 'C2C12 WNT3A-conditioned, nuclear beta-catenin', '> 20000 nM (inactive)'),
  ('CCCCCCCCCCCCNCCNCCNCC(=O)O', 'C2C12 WNT3A-conditioned, nuclear beta-catenin', '> 20000 nM (inactive)'),
  ('CN(C)c1ccc(C(=C2C=CC(=[N+](C)C)C=C2)c2ccccc2)cc1', 'C2C12 WNT3A-conditioned, nuclear beta-catenin', '> 20000 nM (inactive)');

Qu. Record `C#C[C@]1(O)CC[C@H]2[C@@H]3CCc4cc(OC5CCCC5)ccc4[C@H]3CC[C@@]21C` : what is its IC50 with C2C12 WNT3A-conditioned, nuclear beta-catenin?
Ans. > 20000 nM (inactive)

Qu. Next molecule up: `COc1cc([C@@H]2c3cc4c(cc3[C@@H](O[C@@H]3O[C@@H]5CO[C@@H](C)O[C@@H]5[C@H](O)[C@@H]3O)[C@H]3COC(=O)[C@H]23)OCO4)cc(OC)c1O`
Ans. > 20000 nM (inactive)

Qu. Also `CCc1nc(N)nc(N)c1-c1ccc(Cl)cc1` ?
Ans. 860 nM

Qu. Next molecule: O=C1C2CC=CCC2C(=O)N1SC(Cl)(Cl)Cl (stereo unspecified)
Ans. > 20000 nM (inactive)

Qu. Then what about the molecule `CC(=O)Oc1ccc(C2(c3ccc(OC(C)=O)cc3)Oc3ccccc3NC2=O)cc1` ?
Ans. > 20000 nM (inactive)

Qu. O=C1OC2(c3cc(Br)c(O)cc3Oc3c2cc(Br)c(O)[c]3[Hg])c2ccccc21 (stereo unspecified) ?
Ans. 16900 nM (inactive)

Qu. Next molecule: `COC(=O)Nc1nc2ccc(Sc3ccccc3)cc2[nH]1`
Ans. 4840 nM

Qu. Next record, please: `CCC1=C[C@@H]2CN(C1)Cc1c([nH]c3ccccc13)[C@@](C(=O)OC)(c1cc3c(cc1OC)N(C)[C@H]1[C@@](O)(C(=O)OC)[C@H](OC(C)=O)[C@]4(CC)C=CCN5CC[C@]31[C@@H]54)C2`
Ans. 8.9 nM
